- measuredTarget: T1, OX40 (antigen of the competitive ELISA of Example 5) (UniProt P43489 29-214)
- T1 sequence (looked up): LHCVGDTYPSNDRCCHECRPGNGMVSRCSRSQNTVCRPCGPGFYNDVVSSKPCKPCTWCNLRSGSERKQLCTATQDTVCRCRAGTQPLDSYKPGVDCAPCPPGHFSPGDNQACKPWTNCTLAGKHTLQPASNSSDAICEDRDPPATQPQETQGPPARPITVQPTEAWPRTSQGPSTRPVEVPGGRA
- assaySummary: competitive ELISA; competitor BMS-986178
metric: percentage of competition (%)
Value expressed in %; do not type the unit.

MAb034 (antibody, IgG1, V domains shown) VH: EVQLQQSGPVLVKPGASVKMSCKASGYTFTDFYMNWMRQSHGKSLEWIGVIDPYNGNTSYNQKFKGKATLTVDKSSSTAYMELNSLTSEDSAVYYCARGNYYYYAMDYWGQGTSVTVSS VL: DIVLTQSPASLAVSLGQRATISCRASESVSIHGTHLMYWYQQKPGQPPKLLIYAASNLESGVPARFSGSGSETDFTLNIHPVEEEDAATFFCQQSIEDPPTFGGGTKLEIK; 93

Now examine the next entry.
// percentage of competition lookup, binder = MAb047 (antibody, IgG2c, V domains shown) VH: EVQLVESGGGLVKPGGSLKLSCAASGFTFSDYGMYWIRQAPEKGLEWVAYISNGGSSIYYADTVKGRFTVSRDNAKNTLFLQMTSLRSEDTAIYYCARGGELGFAYWGQGTLVTVSA VL: DIQMTQSPASLSVSVGETVTITCRASENIYSNLAWYQQKQGKSPQLLVYAAINLVEGVPSRFSGSGSGTQYSLKINSLQSEDFGSYFCQHFWGLPYTFGGGTKLE , result: 0
